# Tested on: HT-29
# assayComment: NCI tumour cell line growth inhibition, 48 h
Calls of active or inactive are those of the source. No stated cut-off is given here; in the data, active = GI50 up to about 1.1 µM and inactive = higher.
Classes used: active, inactive

[[record]]
compound = "O=[N+]([O-])c1c(O)c2nonc2c2nn(-c3ccccc3)nc12"
assignedlabel = "inactive"

[[record]]
compound = "CC(N)Cc1ccc(Cl)cc1 (stereo unspecified)"
assignedlabel = "inactive"

[[record]]
compound = "Cc1ccc(S(=O)(=O)NC(=O)NC(C(=O)O)C(C)C)cc1 (stereo unspecified)"
assignedlabel = "inactive"

[[record]]
compound = "COc1cc(C2c3cc4c(cc3[C@@H](Nc3ccccc3)C3COC[C@H]23)OCO4)cc(OC)c1O (stereo partly specified)"
assignedlabel = "inactive"

[[record]]
compound = "O=c1c2cc(Br)ccc2[nH]c(=S)n1-c1ccccc1"
assignedlabel = "inactive"

[[record]]
compound = "CC(O)c1cc2c(s1)C(=O)c1ccsc1C2=O (stereo unspecified)"
assignedlabel = "active"

[[record]]
compound = "OCC(O)C(O)C(O)c1nn(-c2ccc(F)cc2)c2nc3cc(Cl)c(Cl)cc3nc12 (stereo unspecified)"
assignedlabel = "inactive"

[[record]]
compound = "Clc1cccc(Cl)c1C1SCc2nc3ccccc3n21 (stereo unspecified)"
assignedlabel = "inactive"

[[record]]
compound = "CS(=O)(=O)OCC1CCCCCCCCCCC12SCCCS2 (stereo unspecified)"
assignedlabel = "inactive"

[[record]]
compound = "CC(C)=CC[C@]12CCN[C@H]1N(S(=O)(=O)c1ccccc1)c1ccccc12"
assignedlabel = "inactive"

[[record]]
compound = "COc1cc(/C=C2\\N=C(c3ccccc3)N(c3nc4ccc(Sc5ccccc5)cc4[nH]3)C2=O)ccc1O"
assignedlabel = "inactive"


====

# System: SK-MEL-5
# assayComment: NCI tumour cell line growth inhibition, 48 h
Active and inactive are the calls of the source. Cut-off read from the data, not from the text of the source: active = GI50 up to about 1.1 µM and inactive = higher.
Classes used: label 1 for active, label 0 for inactive

[[record]]
molecule = "O=C1CSC2(CC(/C=C/c3cccc(Br)c3)=NN2c2cccc(S(=O)(=O)O)c2)N1c1nc2ccccc2s1 (stereo not given)"
tgt = "SK-MEL-5"
assignedlabel = "label 0"

[[record]]
molecule = "Cc1cccc2c(N)c3cccc(C(=O)NCCN4CCOCC4)c3nc12"
tgt = "SK-MEL-5"
assignedlabel = "label 1"

[[record]]
molecule = "CCN(CC)c1ccc(/C=C/C2=NN(c3cccc(S(=O)(=O)O)c3)C3(C2)C(Cl)C(=O)N3c2nc3ccccc3s2)cc1 (stereo not given)"
tgt = "SK-MEL-5"
assignedlabel = "label 0"

[[record]]
molecule = "COC(=O)C12CCC(C)(C)CC1C1=CCC3C4(C)CC(O)C(O)C(C)(C(=O)OC)C4CCC3(C)C1(CO)CC2 (stereo not given)"
tgt = "SK-MEL-5"
assignedlabel = "label 0"

[[record]]
molecule = "CN(C)CCCNC(=O)N/N=C\\c1cccc2ccccc12"
tgt = "SK-MEL-5"
assignedlabel = "label 0"


====

# Test system: SK-MEL-28
# assayComment: NCI tumour cell line growth inhibition, 48 h
Calls of active or inactive are those of the source. Rule as the data show it: active = GI50 up to about 1.1 µM and inactive = higher.
Classes used: class 1 for active, class 0 for inactive

[[record]]
compound = "Cc1ccc2c(c1)SSSSS2"
assignedlabel = "class 0"

[[record]]
compound = "C[C@H](CCC(=O)O)[C@H]1CC[C@H]2[C@@H]3CC[C@@H]4C[C@H](O)CC[C@]4(C)[C@H]3C[C@H](O)[C@]12C [DEOXYCHOLIC ACID]"
assignedlabel = "class 0"

[[record]]
compound = "Brc1ccc(C2C3CSc4ccccc4C3=NN2c2ccccc2)cc1 (centres undefined)"
assignedlabel = "class 0"

[[record]]
compound = "O=[N+]([O-])c1c(O)c2nonc2c2nn(-c3ccccc3)nc12"
assignedlabel = "class 0"

[[record]]
compound = "CC(=O)OCC1OC(n2c3c(cc(C#N)c2=S)CCCCC3)C(OC(C)=O)C(OC(C)=O)C1OC(C)=O (centres undefined)"
assignedlabel = "class 0"

[[record]]
compound = "CCN(CC)CC(O)c1ccc2ccc3ccccc3c2c1 (centres undefined)"
assignedlabel = "class 0"

[[record]]
compound = "O=C(O)CCC(=O)Nc1ccc2c(c1)S(=O)(=O)N(CC(=O)O)C2=O"
assignedlabel = "class 0"

[[record]]
compound = "CC1(C)C/C=C\\CCC(O)C(O)CCC(C)(C)C1=O (centres undefined)"
assignedlabel = "class 0"

[[record]]
compound = "CN(C)CCCNc1ccc2c(=O)n(CCN(C)C)c(=O)n3c4ccccc4c(=O)c1c23"
assignedlabel = "class 1"

[[record]]
compound = "CCCCCOc1ccc(/C=N\\c2ccc(CCc3ccc(/N=C/c4ccc(OCCCCC)cc4)cc3)cc2)cc1"
assignedlabel = "class 0"

[[record]]
compound = "CCOC(=O)/C(=C\\c1ccc(N(CCC#N)CCC#N)cc1C)NC(=O)/C=C/c1ccccc1"
assignedlabel = "class 0"

[[record]]
compound = "O=[N+]([O-])c1sc2ccc(Cl)cc2c1Nc1ccc(Cl)cc1"
assignedlabel = "class 0"

[[record]]
compound = "CC12CC(=O)C3C(C(=O)C1)C32C (centres undefined)"
assignedlabel = "class 0"

[[record]]
compound = "O=C(O)COCC(=O)N(CCOCCN(Cc1ccccc1)C(=O)COCC(=O)O)Cc1ccccc1"
assignedlabel = "class 0"

[[record]]
compound = "O=C1C=CC2(CCCCCCC2=O)CC1 (centres undefined)"
assignedlabel = "class 0"

[[record]]
compound = "Cc1sc2nc3n(sc4nc5sc(C)c(C)c5c(=O)n43)c(=O)c2c1C"
assignedlabel = "class 0"

[[record]]
compound = "CC(C)[Si](OC/C(=C/COC(C)(C)C)[C@H]1CC=C(C(=O)c2ccccc2N2CN(C)C(=O)N(C)C2)C1)(C(C)C)C(C)C"
assignedlabel = "class 0"

[[record]]
compound = "O=C(Nc1ccccc1)N1CCN(C(=O)Nc2ccccc2)C1=S"
assignedlabel = "class 0"

[[record]]
compound = "CC(C)(C)c1cc(C(O)(C(F)(F)F)C(F)(F)F)c2c(c1)C(C(F)(F)F)(C(F)(F)F)OC(C)(C(C)(C)C)N2 (centres undefined)"
assignedlabel = "class 0"

[[record]]
compound = "Cc1ccc(-c2nnc(SCC(=O)O)[nH]2)cc1"
assignedlabel = "class 0"

[[record]]
compound = "Cc1ccc(C)c(NC(=O)CC/C(=N\\NC(=O)c2c(O)ccc3ccccc23)C(C)C(=O)c2ccc(O)cc2)c1 (centres undefined)"
assignedlabel = "class 0"

[[record]]
compound = "Cc1cc(NC(=O)NC(=O)c2ccccc2NC(=O)C(C)N)ccc1Oc1ncc(Br)cn1 (centres undefined)"
assignedlabel = "class 1"

[[record]]
compound = "O=C(/C=C/c1cccc2ccccc12)c1ccccc1"
assignedlabel = "class 0"

[[record]]
compound = "O=c1/c(=C/c2ccccc2[N+](=O)[O-])sc2nnc(-c3cccnc3)n12"
assignedlabel = "class 0"

[[record]]
compound = "O=P1(N(CCCl)CCCl)Oc2c(Cl)cc(Cl)c(Cl)c2Cc2c(Cl)c(Cl)cc(Cl)c2O1"
assignedlabel = "class 0"

[[record]]
compound = "O=C(NCCCC/N=c1/cccccc1NCCCCNC(=O)OCc1ccccc1)OCc1ccccc1"
assignedlabel = "class 0"

[[record]]
compound = "COc1ccc2c(c1)[n+]([O-])c(C(=O)C/C(=N/NC(=O)c1ccccc1O)C(=O)Nc1ccc(Cl)c(C(F)(F)F)c1)c(C)[n+]2[O-]"
assignedlabel = "class 0"

[[record]]
compound = "O=C(O)C(/C=C/c1ccccc1)c1ccccc1 (centres undefined)"
assignedlabel = "class 0"

[[record]]
compound = "Cn1ncc2c(Nc3ccc(Cl)cc3)c3ccccc3nc21"
assignedlabel = "class 0"

[[record]]
compound = "CCOC(=O)CCc1cc(=O)oc2cc(O)cc(O)c12"
assignedlabel = "class 0"

[[record]]
compound = "CCC1c2[nH]c3ccccc3c2C[C@H]2C(=O)NC(C)C(=O)N12 (some centres undefined)"
assignedlabel = "class 0"

[[record]]
compound = "C/C(=N\\NC1=NCCN1)c1cn(C2=NCCN2)nc1C"
assignedlabel = "class 0"

[[record]]
compound = "OC(c1cc(C23CC4CC(CC(C4)C2)C3)nc2c(Cl)cc(Cl)cc12)C1CCCCN1 (centres undefined)"
assignedlabel = "class 0"

[[record]]
compound = "[O-][S+]1c2ccccc2N=C(c2ccc3ccccc3c2)CC1C1=CC=CCC1 (centres undefined)"
assignedlabel = "class 0"

[[record]]
compound = "O=C(Sc1c(-c2ccccc2)c(=O)n(-c2ccccc2)c(=S)n1-c1ccccc1)c1cccs1"
assignedlabel = "class 0"

[[record]]
compound = "COC(=O)[C@@]12OC[C@]34[C@H]([C@@H](O)[C@@H]1O)[C@@]1(C)CC(=O)C(O)=C(C)[C@@H]1C[C@H]3OC(=O)[C@H](OC(=O)/C=C(\\C)C(C)C)[C@@H]24 [BRUCEANTIN]"
assignedlabel = "class 1"

[[record]]
compound = "COc1cc(Oc2nc3ccc(C(F)(F)F)cc3nc2-c2ccccc2)cc(OC)c1OC"
assignedlabel = "class 0"

[[record]]
compound = "Cc1cnc(Cl)nc1C(C#N)c1nc2ccccc2n1C (centres undefined)"
assignedlabel = "class 0"

[[record]]
compound = "OCC1OC(Oc2cc(O)cc(/C=C\\c3ccc(O)cc3)c2)C(O)C(O)C1O (centres undefined)"
assignedlabel = "class 0"


meta.source: ChEMBL document CHEMBL1201862
